Hello, the source for this data is ChEMBL document CHEMBL4152326, in case you need it.

System: Acinetobacter baumannii
Assay: Antimicrobial activity against OXA-23/OXA-58 producing Acinetobacter baumannii SR27323 in presence of human apo-transferrin by broth microdilution method
Format: functional

{"smiles str": "C[N+]1(CC2=C(C(=O)[O-])N3C(=O)[C@@H](NC(=O)/C(=N\\O[C@@H](CNC(=O)c4ccc(O)c(O)c4Cl)C(=O)O)c4csc(N)n4)[C@H]3SC2)CCCC1", "value units": "µg/mL", "prefix operator": "=", "MIC": 1}
{"smiles str": "Nc1nc(/C(=N/O[C@@H](CC(=O)O)C(=O)O)C(=O)N[C@@H]2C(=O)N3C(C(=O)[O-])=C(C[N+]4(CCNC(=O)c5ccc(O)c(O)c5Cl)CCCC4)CS[C@H]23)cs1", "value units": "µg/mL", "prefix operator": "=", "MIC": 1}
{"smiles str": "CC(C)(O/N=C(\\C(=O)N[C@@H]1C(=O)N2C(C(=O)[O-])=C(C[n+]3ccc(NC(=O)c4ccc(O)c(O)c4Cl)cc3)CS[C@H]12)c1csc(N)n1)C(=O)O", "value units": "µg/mL", "prefix operator": "=", "MIC": 2}
{"smiles str": "COc1c(O)ccc(C(=O)NCC[N+]2(CC3=C(C(=O)[O-])N4C(=O)[C@@H](NC(=O)/C(=N\\OC(C)(C)C(=O)O)c5csc(N)n5)[C@H]4SC3)CCCC2)c1Cl", "value units": "µg/mL", "prefix operator": ">", "MIC": 32}
{"smiles str": "Nc1nc(/C(=N/OCC(=O)O)C(=O)N[C@@H]2C(=O)N3C(C(=O)[O-])=C(C[N+]4(CCNC(=O)c5ccc(O)c(O)c5Cl)CCCC4)CS[C@H]23)cs1", "value units": "µg/mL", "prefix operator": "=", "MIC": 0.5}

###

The following molecules are listed with their measured MIC values.
System: Pseudomonas aeruginosa
Experiment: Antimicrobial activity against AmpC overproducing Pseudomonas aeruginosa SR24-12 in presence of human apo-transferrin by broth microdilution method
Type: functional

{"molecule": "CC(C)(O/N=C(\\C(=O)N[C@@H]1C(=O)N2C(C(=O)[O-])=C(C[N+]34CCC(CNC(=O)c5ccc(O)c(O)c5Cl)(CC3)CC4)CS[C@H]12)c1csc(N)n1)C(=O)O", "MIC": "0.5 µg/mL"}
{"molecule": "CC(C)(O/N=C(\\C(=O)N[C@@H]1C(=O)N2C(C(=O)[O-])=C(C[N+]3(CCCNC(=O)c4ccc(O)c(O)c4Cl)CCCC3)CS[C@H]12)c1csc(N)n1)C(=O)O", "MIC": "0.5 µg/mL"}
{"molecule": "CC(C)(O/N=C(\\C(=O)N[C@@H]1C(=O)N2C(C(=O)[O-])=C(C[n+]3ccc(NC(=O)c4ccc(O)c(O)c4Cl)cc3)CS[C@H]12)c1csc(N)n1)C(=O)O", "MIC": "0.25 µg/mL"}
{"molecule": "NCC[N+]1(CC2=C(C(=O)[O-])N3C(=O)[C@@H](NC(=O)/C(=N\\OC[C@H](NC(=O)c4ccc(O)c(O)c4Cl)C(=O)O)c4csc(N)n4)[C@H]3SC2)CCCC1", "MIC": "0.25 µg/mL"}
{"molecule": "CC(C)(O/N=C(\\C(=O)N[C@@H]1C(=O)N2C(C(=O)[O-])=C(C[N+]3(CCNC(=O)c4ccc(O)c(O)c4Cl)CCCC3)CS[C@H]12)c1nc(N)sc1Cl)C(=O)O", "MIC": "0.5 µg/mL"}
{"molecule": "CC(C)(O/N=C(\\C(=O)N[C@@H]1C(=O)N2C(C(=O)[O-])=C(C[N+]3(CCNC(=O)c4ccc(O)c(O)c4Cl)CCCCC3)CS[C@H]12)c1csc(N)n1)C(=O)O", "MIC": "0.25 µg/mL"}
{"molecule": "CC(C)(O/N=C(\\C(=O)N[C@@H]1C(=O)N2C(C(=O)[O-])=C(C[N+]3(C)C[C@H]4C[C@@H]3CN4C(=O)c3ccc(O)c(O)c3Cl)CS[C@H]12)c1csc(N)n1)C(=O)O (stereo partly drawn)", "MIC": "0.5 µg/mL"}
{"molecule": "CC(C)(O/N=C(\\C(=O)N[C@@H]1C(=O)N2C(C(=O)[O-])=C(C[N+]3(CCNC(=O)Nc4ccc(O)c(O)c4Cl)CCCC3)CS[C@H]12)c1csc(N)n1)C(=O)O", "MIC": "1 µg/mL"}
